systemTested: AMOTL1; also: reference of the scale not given here
procedureText: pooled miR-30 sensor sort-seq; sequence = guide strand
conditionInfo: shRNA
Rule: sensor-assay potency score (higher = more potent) under -0.7 gives 0 (no), otherwise 1 (yes).

Worked examples follow.
TAGCAGTCTCTAGTCGATCTCG
1 (yes)
TTAACTTTGTTTGCAAACCTAC
1 (yes)
TAGACTTGACCAGACTTTCATA
0 (no)
TTGTCAGTCTGTGTGCTGCTGT
1 (yes)
TTCTTGAGTGAGGTTTTCCGTG
1 (yes)
TTTGTCTTCATGCCCTTCGTAT
0 (no)

[Q] Dear colleague, could you confirm whether TTCTTTTTCAAACTTGTGGAGC has sensor-assay potency score (higher = more potent) at or above -0.7?
[A] 1 (yes)

[Q] Dear colleague, could you confirm whether TAATCATAGCATCTTTCTCTAT has sensor-assay potency score (higher = more potent) at or above -0.7?
[A] 0 (no)
